- System: HCT116 MTAP-/-
- MEASUREMENT_DESCRIPTION: Inhibition of cellular proliferation (Cell Titer Glo), HCT116 MTAP-/-
- Format: cell-based, human
- TEST_CONTEXT: Homo sapiens, HCT-116, 96 h, Table 5a, 4 days, read-out: 4 Day Relative Growth Inhibition (MTAP −/−)
MEASURED_METRIC: IC50

Query: What does the record list as IC50 for [2H]C([2H])([2H])Oc1ccc(N2C(=O)N(c3ccc4nn(C)cc4c3)Cc3ncc(OCC)nc32)cc1 [Example 417] ?
Result: 0.1 to 1 µM

Query: What does the record list as IC50 for COc1ccc(N2C(=O)N(c3ccc4nccn4c3)Cc3cnc(NCC(F)(F)F)nc32)cc1 [Example 237] ?
Result: 0.1 to 1 µM

Query: What does the record list as IC50 for COc1ccc(N2Cc3cnc(NCC(F)(F)F)nc3N(c3ccc(Br)cc3)C2=O)cc1 [Example 236] ?
Result: > 1 µM

Query: What does the record list as IC50 for COc1ccc(N2Cc3cnc(NCC(F)(F)F)nc3N(c3ccc(OC(F)F)cc3)C2=O)cc1 [Example 235] ?
Result: 0.1 to 1 µM

Query: What does the record list as IC50 for COC1CC=C(N2C(=O)N(c3ccc4nn(C)cc4c3)Cc3ccc(OCC(F)F)nc32)CC1 (centres unmarked) [Example 178] ?
Result: < 0.1 µM
